Assay: Multiple ascending dose (MAD) study: multiple-dose pharmacokinetics
Assay type: in vivo, human
Settings: human, plasma, oral, 120 mg, 120 mg BID × 14 Days, Day 14; read-out: AUC(0-12), Mean
MEASURE: AUC(0-t) (ng·h/mL)
Give bare numbers, in ng·h/mL.

In plain terms, `CC(=O)c1nn(CC(=O)N2[C@H](C(=O)Nc3nc(Br)ccc3C)C[C@@]3(C)C[C@@H]23)c2ccc(-c3cnc(C)nc3)cc12` has a documented AUC(0-t) of 3990

----------
Test: Multiple ascending dose (MAD) study: multiple-dose pharmacokinetics
Format: in vivo, human
Settings: human, plasma, oral, 120 mg, 120 mg BID; read-out: Cmax
MEASURE: Cmax

In plain terms, `CC(=O)c1nn(CC(=O)N2[C@H](C(=O)Nc3nc(Br)ccc3C)C[C@@]3(C)C[C@@H]23)c2ccc(-c3cnc(C)nc3)cc12` has a documented Cmax of < 1000 ng/mL

----------
Experiment: Multiple ascending dose (MAD) study: multiple-dose pharmacokinetics
Format: in vivo, human
Settings: human, plasma, oral, 200 mg, 200 mg BID, Day 8, 0 hr post-dose (168 h); read-out: Pre-dose (trough) plasma concentration, Mean
MEASURE: concentration at 168 h
Reply with the number and its unit after it.

In plain terms, `CC(=O)c1nn(CC(=O)N2[C@H](C(=O)Nc3nc(Br)ccc3C)C[C@@]3(C)C[C@@H]23)c2ccc(-c3cnc(C)nc3)cc12` has a documented concentration at 168 h of 0.381 µg/mL

----------
Assay: Multiple ascending dose (MAD) study: multiple-dose pharmacokinetics
Assay type: in vivo, human
Settings: human, plasma, oral; 40 mg BID, all 0 hr (morning) troughs; read-out: Mean C(0), steady-state trough
MEASURE: C0 at 0 h
Reply with the number and its unit after it.

In plain terms, CC(=O)c1nn(CC(=O)N2[C@H](C(=O)Nc3nc(Br)ccc3C)C[C@@]3(C)C[C@@H]23)c2ccc(-c3cnc(C)nc3)cc12 [Compound 1] has a documented C0 at 0 h of 23.4 ng/mL

----------
Assay: Multiple ascending dose (MAD) study: multiple-dose pharmacokinetics
Type: in vivo, human
Conditions: human, plasma, oral, 80 mg, 80 mg BID, Day 14, 12 hr post-dose (324 h); read-out: Pre-dose (trough) plasma concentration, Mean
MEASURE: concentration at 324 h (ng/mL)
One number for each entry, in ng/mL.

In plain terms, `CC(=O)c1nn(CC(=O)N2[C@H](C(=O)Nc3nc(Br)ccc3C)C[C@@]3(C)C[C@@H]23)c2ccc(-c3cnc(C)nc3)cc12` has a documented concentration at 324 h of 42.5

----------
Assay: Multiple ascending dose (MAD) study: multiple-dose pharmacokinetics
Format: in vivo, human
Details: human, plasma, oral, 120 mg, 120 mg BID × 14 Days, Day 1
MEASURE: Tmax (h)
Give bare numbers, in h.

In plain terms, `CC(=O)c1nn(CC(=O)N2[C@H](C(=O)Nc3nc(Br)ccc3C)C[C@@]3(C)C[C@@H]23)c2ccc(-c3cnc(C)nc3)cc12` has a documented Tmax of 2

----------
Test: Multiple ascending dose (MAD) study: multiple-dose pharmacokinetics
Assay type: in vivo, human
Conditions: human, plasma, oral, 80 mg, 80 mg BID × 14 Days, Day 14; read-out: Cmax, Mean
MEASURE: Cmax (ng/mL)
Numbers only, in ng/mL.

In plain terms, `CC(=O)c1nn(CC(=O)N2[C@H](C(=O)Nc3nc(Br)ccc3C)C[C@@]3(C)C[C@@H]23)c2ccc(-c3cnc(C)nc3)cc12` has a documented Cmax of 453

----------
Experiment: Multiple ascending dose (MAD) study: multiple-dose pharmacokinetics
Type: in vivo, human
Details: human, plasma, oral, 120 mg, 120 mg BID, Day 8, 0 hr post-dose (168 h); read-out: Pre-dose (trough) plasma concentration, Mean
MEASURE: concentration at 168 h
Reply with the number and its unit after it.

In plain terms, CC(=O)c1nn(CC(=O)N2[C@H](C(=O)Nc3nc(Br)ccc3C)C[C@@]3(C)C[C@@H]23)c2ccc(-c3cnc(C)nc3)cc12 [Compound 1] has a documented concentration at 168 h of 164 ng/mL

----------
Test: Multiple ascending dose (MAD) study: multiple-dose pharmacokinetics
Type: in vivo, human
Details: human, plasma, oral, 40 mg BID, Day 9, 0 hr post-dose (192 h); read-out: Pre-dose (trough) plasma concentration, Mean
MEASURE: concentration at 192 h (µg/mL)
Answers are plain numbers, in µg/mL.

In plain terms, CC(=O)c1nn(CC(=O)N2[C@H](C(=O)Nc3nc(Br)ccc3C)C[C@@]3(C)C[C@@H]23)c2ccc(-c3cnc(C)nc3)cc12 [Compound 1] has a documented concentration at 192 h of 0.0269

----------
Experiment: Phase I single ascending dose (SAD) study: plasma and urine pharmacokinetics
Assay type: in vivo, human
Details: human, plasma, oral, 80 mg, 80 mg single dose, fasted, plasma; read-out: Cmax, Mean
Description: A single ascending dose (SAD) study was the first-in-human study of Compound 1. […] […] were dosed and evaluated in 4 dose groups with ten subjects receiving placebo (Table 1). […] All subjects were monitored for safety through the last scheduled visit at Day 28. […] Results of serum AP activity measured by AP Wieslab assay as well as plasma Bb, factor D level and several other PD biomarkers were determined. […]
MEASURE: Cmax (ng/mL)
One number for each entry, in ng/mL.

In plain terms, `CC(=O)c1nn(CC(=O)N2[C@H](C(=O)Nc3nc(Br)ccc3C)C[C@@]3(C)C[C@@H]23)c2ccc(-c3cnc(C)nc3)cc12` has a documented Cmax of 253

----------
Assay: Phase I single ascending dose (SAD) study: plasma and urine pharmacokinetics
Assay type: in vivo, human
Details: human, plasma, oral, 40 mg, 40 mg single dose, fasted, plasma; read-out: Cmax, GM
Procedure: A single ascending dose (SAD) study was the first-in-human study of Compound 1. […] […] were dosed and evaluated in 4 dose groups with ten subjects receiving placebo (Table 1). […] All subjects were monitored for safety through the last scheduled visit at Day 28. […] Results of serum AP activity measured by AP Wieslab assay as well as plasma Bb, factor D level and several other PD biomarkers were determined. […]
MEASURE: Cmax
Reply with the number and its unit after it.

In plain terms, `CC(=O)c1nn(CC(=O)N2[C@H](C(=O)Nc3nc(Br)ccc3C)C[C@@]3(C)C[C@@H]23)c2ccc(-c3cnc(C)nc3)cc12` has a documented Cmax of 85.3 ng/mL

----------
Assay: Phase I single ascending dose (SAD) study: plasma and urine pharmacokinetics
Type: in vivo, human
Conditions: human, plasma, oral, 120 mg, 120 mg single dose, fasted, plasma; read-out: Cmax, GM
MEASURE: Cmax (ng/mL)
Give bare numbers, in ng/mL.

In plain terms, `CC(=O)c1nn(CC(=O)N2[C@H](C(=O)Nc3nc(Br)ccc3C)C[C@@]3(C)C[C@@H]23)c2ccc(-c3cnc(C)nc3)cc12` has a documented Cmax of 303

----------
Experiment: Phase I single ascending dose (SAD) study: plasma and urine pharmacokinetics
Type: in vivo, human
Conditions: human, plasma, oral, 40 mg, 40 mg single dose, fasted, plasma; read-out: Cmax, Median
MEASURE: Cmax

In plain terms, CC(=O)c1nn(CC(=O)N2[C@H](C(=O)Nc3nc(Br)ccc3C)C[C@@]3(C)C[C@@H]23)c2ccc(-c3cnc(C)nc3)cc12 [Compound 1] has a documented Cmax of 79.1 ng/mL

----------
Assay: Multiple ascending dose (MAD) study: multiple-dose pharmacokinetics
Type: in vivo, human
Details: human, plasma, oral, 120 mg, 120 mg BID × 14 Days, Day 7; read-out: AUC(0-24), Mean
MEASURE: AUC(0-t) (ng·h/mL)
Numbers only, in ng·h/mL.

In plain terms, `CC(=O)c1nn(CC(=O)N2[C@H](C(=O)Nc3nc(Br)ccc3C)C[C@@]3(C)C[C@@H]23)c2ccc(-c3cnc(C)nc3)cc12` has a documented AUC(0-t) of 7750

----------
Experiment: Phase I single ascending dose (SAD) study: plasma and urine pharmacokinetics
Format: in vivo, human
Details: human, plasma, oral, 40 mg, 40 mg single dose, fasted, plasma; read-out: AUC0-inf, Mean
MEASURE: AUC(0-inf) (ng·h/mL)
Give bare numbers, in ng·h/mL.

In plain terms, `CC(=O)c1nn(CC(=O)N2[C@H](C(=O)Nc3nc(Br)ccc3C)C[C@@]3(C)C[C@@H]23)c2ccc(-c3cnc(C)nc3)cc12` has a documented AUC(0-inf) of 514

----------
Assay: Multiple ascending dose (MAD) study: multiple-dose pharmacokinetics
Format: in vivo, human
Conditions: human, plasma, oral, 80 mg, 80 mg BID × 14 Days, Day 1
MEASURE: Tmax (h)
Give bare numbers, in h.

In plain terms, `CC(=O)c1nn(CC(=O)N2[C@H](C(=O)Nc3nc(Br)ccc3C)C[C@@]3(C)C[C@@H]23)c2ccc(-c3cnc(C)nc3)cc12` has a documented Tmax of 1.79
